# Lookup of reported GI50 keyed by entry
# Test system: DLD-1
# method: NCI tumour cell line growth inhibition, 48 h
Active and inactive are the calls of the source. Rule as the data show it: active = GI50 up to about 1.1 µM and inactive = higher.
readout.type: GI50

| compound | experimental.target | result |
| --- | --- | --- |
| CN[C@H](C)[C@@H](OC)c1ccccc1 | DLD-1 | > 100 µM (inactive) |
| CC(C)OP(=O)(OC(C)C)/C(I)=N/Nc1ccc([N+](=O)[O-])cc1 | DLD-1 | > 100 µM (inactive) |
| O=C(NCC#CCO)C(F)(F)F | DLD-1 | > 100 µM (inactive) |
| CC(C(=O)c1ccccc1)C1(O)C(=O)Nc2ccc(Cl)cc21 (stereo unspecified) | DLD-1 | > 100 µM (inactive) |
| Cn1cnc([N+](=O)[O-])c1Sc1nc2cccnc2s1 | DLD-1 | 12.8 µM (inactive) |
| COc1ccc2c(CCNC(C)=O)c(C(C)=O)[nH]c2c1 | DLD-1 | > 100 µM (inactive) |
| N#CC(C#N)=Cc1cccc(Oc2ccccc2)c1 | DLD-1 | 22.5 µM (inactive) |
| CCc1nc2cc(/N=N/c3c(O)ccc4ccccc34)ccc2[nH]1 | DLD-1 | 15 µM (inactive) |
| O=C1C=CC=CC2CC=C[C@@H](O)C12 (stereo partly specified) | DLD-1 | 25.1 µM (inactive) |
| [O-][n+]1c2cc(CN3CCOCC3)c(CN3CCOCC3)cc2[n+]([O-])c2c(O)cccc21 | DLD-1 | 2.12 µM (inactive) |
| C=CC1=CC(C)C[C@]1(O)C(=O)OC (stereo partly specified) | DLD-1 | < 0.01 µM (active) |
| CN(CCN(C)C(=O)CCOS(C)(=O)=O)C(=O)CCOS(C)(=O)=O | DLD-1 | > 100 µM (inactive) |
| CN(C)c1[se]nc2c1c(=O)n(C)c(=O)n2C | DLD-1 | > 100 µM (inactive) |
| CC1CCP(=O)(c2ccccc2)CC1 (stereo unspecified) | DLD-1 | > 100 µM (inactive) |
| Cc1cc2c(=O)c3ccc(Cl)cc3[nH]c2c(C(=O)O)c1C | DLD-1 | > 100 µM (inactive) |
| O=c1c2cc(Br)cc(Br)c2[nH]c(=S)n1-c1ccccc1 | DLD-1 | > 100 µM (inactive) |

###

# Lookup of reported GI50 keyed by entry
# Tested on: HOP-92
# method: NCI tumour cell line growth inhibition, 48 h
The source made the active and inactive calls. Cut-off read from the data, not from the text of the source: active = GI50 up to about 1.1 µM and inactive = higher. Where a SMILES comes first, the peptide text is derived from it. Bridges are numbered along the chain shown (N, C = ends). [ ]: non-standard residue; d: D form. The star is where a group is joined. ξ: configuration not given here. X28 = O=C(/C=C/C=C/C=C/C=C/C=C/C(=O)*)NC1=C(O)CCC1=O; NMeA = CN[C@@H](C)C(=O)O; ξF = NC(Cc1ccccc1)C(=O)O; ξA = CC(N)C(=O)O

| compound | experimental.target | GI50 |
| --- | --- | --- |
| O=C1C(Cl)N(c2ccccc2)C1c1c[nH]c2ccccc12 (configuration not stated) | HOP-92 | > 100 µM (inactive) |
| COC(=O)C1(Cc2ccccc2)Cc2cc3c(cc2C1O)CCC3 (configuration not stated) | HOP-92 | 16 µM (inactive) |
| Cc1c(-c2ccccc2)cc(O)c2nc3ccccc3n12 | HOP-92 | 10.2 µM (inactive) |
| CSc1nc(NC2OCC(OC(C)=O)C(OC(C)=O)C2OC(C)=O)c2c(OC(C)=O)c(C)c(=O)oc2n1 (configuration not stated) | HOP-92 | 71.6 µM (inactive) |
| CC1NC(=O)[C@H](C)N(C)C(=O)[C@@H]2CCCN2C(=O)[C@@H](NC(=O)C(Cc2ccccc2)NC(=O)/C=C/C=C/C=C/C=C/C=C/C(=O)NC2=C(O)CCC2=O)COC(=O)[C@@H]2CCCN2C1=O (some centres not stated) (X28-[ξF]SP[NMeA][ξA]P; ester 2-C) | HOP-92 | 78.2 µM (inactive) |
| CCOC1SC(SC)=NN1C(=O)C(OC(C)=O)C(OC(C)=O)C(OC(C)=O)C(OC(C)=O)C(=O)N1N=C(SC)SC1OCC (configuration not stated) | HOP-92 | 38.2 µM (inactive) |
| C=Cc1cncc(C#N)c1CCc1c(C#N)cncc1C=C | HOP-92 | > 10 µM (inactive) |
| CCCCCCCCCCCCCCC[C@@H](O)C[N+](C)(C)CCO | HOP-92 | 1.27 µM (inactive) |
| Clc1ccc(-c2c3nc(c(-c4ccc(Cl)cc4)c4ccc([nH]4)c(-c4ccc(Cl)cc4)c4nc(c(-c5ccc(Cl)cc5)c5ccc2[nH]5)C=C4)C=C3)cc1 | HOP-92 | > 100 µM (inactive) |
| COc1ccc2c(=O)c3cc([N+](=O)[O-])ccc3n(C)c2c1 | HOP-92 | > 100 µM (inactive) |
| CCN(CC)c1ccc(/N=C2/C=CC(=O)c3ncccc32)c(C)c1 | HOP-92 | 6.75 µM (inactive) |
| CC(C)=CCc1c(O)cc2oc(-c3ccc(O)cc3O)cc(=O)c2c1O | HOP-92 | 32.4 µM (inactive) |
